Experiment: PG796(MRx102) solubility in emulsion formulations
Type: physicochemical
Conditions: emulsion formulation, aqueous with cosolvent or surfactant or cyclodextrin; emulsion target pH 8.0 (Tris); 2 wk
property_label: solubility at 2 wk (µg/mL)
Answer in µg/mL, number only, no unit symbol.

IN: Quick one: solubility at 2 wk of CC(C)[C@]12O[C@H]1[C@@H]1O[C@]13[C@]1(O[C@H]1C[C@H]1c4c(C(=O)c5ccccc5)oc(OC(=O)c5ccccc5)c4CC[C@@]13C)[C@@H]2O ?
OUT: 930

----------
Test: PG796(MRx102) solubility in emulsion formulations
Type: physicochemical
Settings: emulsion formulation, aqueous with cosolvent or surfactant or cyclodextrin; emulsion target pH 8.0 (Tris); 0 hr
Description: Various ratios of the nonionic surfactants polysorbate 80 (a.k.a. Tween 80) and Span 80 were explored, and a formulation was prepared and tested as follows. […] The results of this preliminary experiment were encouraging in that a reasonably high solubility was obtained in a formulation containing almost 70% water. Emulsion formulations were prepared using a probe sonicator to disperse the oil phase in the aqueous phase to form a creamy opaque suspension. […]
property_label: solubility at 0 hr (µg/mL)
Answer in µg/mL, number only, no unit symbol.

IN: Quick one: solubility at 0 hr of CC(C)[C@]12O[C@H]1[C@@H]1O[C@]13[C@]1(O[C@H]1C[C@H]1c4c(C(=O)c5ccccc5)oc(OC(=O)c5ccccc5)c4CC[C@@]13C)[C@@H]2O ?
OUT: 929

----------
Assay: PG796(MRx102) solubility in emulsion formulations
Format: physicochemical
Conditions: emulsion formulation, aqueous with cosolvent or surfactant or cyclodextrin; emulsion target pH 7.0 (phosphate); 0 hr
property_label: solubility at 0 hr (µg/mL)
Answer in µg/mL, number only, no unit symbol.

IN: Quick one: solubility at 0 hr of CC(C)[C@]12O[C@H]1[C@@H]1O[C@]13[C@]1(O[C@H]1C[C@H]1c4c(C(=O)c5ccccc5)oc(OC(=O)c5ccccc5)c4CC[C@@]13C)[C@@H]2O ?
OUT: 996

----------
Assay: PG796(MRx102) solubility in emulsion formulations
Assay type: physicochemical
Conditions: emulsion formulation, aqueous with cosolvent or surfactant or cyclodextrin; emulsion target pH 6.0 (histidine); 0 hr
Description: Various ratios of the nonionic surfactants polysorbate 80 (a.k.a. Tween 80) and Span 80 were explored, and a formulation was prepared and tested as follows. […] The results of this preliminary experiment were encouraging in that a reasonably high solubility was obtained in a formulation containing almost 70% water. Emulsion formulations were prepared using a probe sonicator to disperse the oil phase in the aqueous phase to form a creamy opaque suspension. […]
property_label: solubility at 0 hr (µg/mL)
Answer in µg/mL, number only, no unit symbol.

IN: Quick one: solubility at 0 hr of CC(C)[C@]12O[C@H]1[C@@H]1O[C@]13[C@]1(O[C@H]1C[C@H]1c4c(C(=O)c5ccccc5)oc(OC(=O)c5ccccc5)c4CC[C@@]13C)[C@@H]2O [PG796] ?
OUT: 1090

----------
Assay: PG796(MRx102) solubility in emulsion formulations
Type: physicochemical
Conditions: emulsion formulation, aqueous with cosolvent or surfactant or cyclodextrin; emulsion target pH 6.0 (histidine); 24 hr
property_label: solubility at 24 hr (µg/mL)
Answer in µg/mL, number only, no unit symbol.

IN: Quick one: solubility at 24 hr of CC(C)[C@]12O[C@H]1[C@@H]1O[C@]13[C@]1(O[C@H]1C[C@H]1c4c(C(=O)c5ccccc5)oc(OC(=O)c5ccccc5)c4CC[C@@]13C)[C@@H]2O ?
OUT: 890
